Attribution: the supplement of paper PMC8253809

test system: HGGX39 (paediatric high-grade glioma line); assay: growth inhibition (% activity, log2 RLU normalised to DMSO / staurosporine); higher = more growth inhibition; conditions: 33 µM
Entries annotated with measured growth inhibition
Numbers only here, please. The scale is %.

Here are 3 compounds together with their reported answers.
{"columns": ["COMPOUND", "UNIT_NAME", "OBSERVED"],
 "data": [
  ["O=C(O)C(=O)O.[NH-]C1CCCCC1[NH-].[Pt+2] (stereo unspecified)", "%", -0.76],
  ["CC(C)NCC(O)COc1cccc2ccccc12 (stereo unspecified)", "%", 0.98],
  ["NCCc1c[nH]cn1", "%", 1.84]
]}

Any idea what its growth inhibition is? The compound is `CCOC(=O)[C@H](CCc1ccccc1)N[C@@H](C)C(=O)N1CCC[C@H]1C(=O)O` 0.569

Input `CC(=O)OCC(=O)[C@@]12OC(C)(C)O[C@@H]1C[C@H]1[C@@H]3C[C@H](F)C4=CC(=O)C=C[C@]4(C)[C@@]3(F)[C@@H](O)C[C@@]12C` 2.3

Input `CC(=O)NS(=O)(=O)c1ccc(N)cc1` 1.9

Input `CCCN(CCC)S(=O)(=O)c1ccc(C(=O)O)cc1` 1.02

Input `CC1(C)S[C@@H]2[C@H](NC(=O)Cc3ccccc3)C(=O)N2[C@H]1C(=O)O` 2.76

Input CN1CC2c3ccccc3Oc3ccc(Cl)cc3C2C1 (stereo unspecified) 5.72

Input `CC(=O)OCC(=O)[C@@]1(O)CC[C@H]2[C@@H]3CCC4=CC(=O)C=C[C@]4(C)[C@H]3[C@@H](O)C[C@@]21C` 5.57

Input CCCCC(CC)CN=C(N)N=C(N)NCCCCCCNC(N)=NC(N)=NCC(CC)CCCC (stereo unspecified) 58.4
